B1: Membrane-associated guanylate kinase, WW and PDZ domain-containing protein 1, residues 352 to 401; numbered along this chain, Q96QZ7 (parent)
chain: TEELDSELELPAGWEKIEDPVYGIYYVDHINRKTQYENPVLEAKRKKQLE

Variants of: B1
test protocol: abundance fitness (aPCA) (normalised: wild type 0, dead -1); higher = more abundant; growth selection in yeast, the domain comes from the species named
condition set: Homo sapiens
measured metric: abundance fitness

    mutation_string  value_reported
 0              L4E          -0.239
 1              E9V          -0.126
 2             I24V          -0.066
 3              T1L          -0.128
 4             E37S          -0.162
 5             E18C          -0.132
 6              L8G           -0.15
 7             L10S          -0.382
 8             I17Y           -0.06
 9             E42P          -0.361
10             Q35D          -0.597
11             A43C          -0.246
12             G13P           -0.41
13             L41E          -0.053
14             Y22R           0.056
15             E37M          -0.296
16             Y25Q           -0.14
17             K33Q          -0.034
18             E37D          -0.151
19             V40Y          -0.237
20             I17D          -0.637
21             Q35I          -0.571
